# Tested on: 786-0 renal
# assay_notes: NCI-60 one-dose screen, 48 h
# condition_set: 10 µM unless noted
The panel holds about 83,000 compounds, 20% with a hit somewhere; the sample as a whole holds those more often. The source made the active and inactive calls. How the source made its calls: active means growth percent below 10; inactive means the rest.
// allowed return values: active, inactive

Input line: # outcome recorded in this test, key = COc1ccc(CN2C(=O)OC(C)(COC(C)=O)C2=O)cc1 (configuration not stated)
Output line: inactive

Input line: For CCOC(=O)C#Cc1c(C(=O)OCC)nnn1[C@@H]1O[C@H](COC)[C@@H](OC)[C@H]1OC , what call appears in the results of this test?
Output line: inactive

Input line: Short answer needed: outcome of this test for COc1cc(N2C(=O)[C@H](Cl)C2c2ccc(SC)cc2)cc(OC)c1OC (some centres not stated) ?
Output line: active

Input line: Status in this test for O=S(=O)(Nc1cc(Sc2nc3ccccc3s2)c(O)c2ccccc12)c1ccc2ccccc2c1 ?
Output line: inactive

Input line: What did the test return for CCCCC#Cc1c(I)n(C2OC(CO[Si](C)(C)C(C)(C)C)C3OC(C)(C)OC32)c(=O)n(C(=O)c2ccccc2)c1=O (configuration not stated) ?
Output line: inactive

Input line: Lab log entry: Nc1cc(-c2ccc(Cl)cc2)nn1-c1nnc(/C=C/c2ccco2)c(=O)[nH]1 — outcome as called in the assay?
Output line: inactive

Input line: Give the logged outcome of this assay for the following compound: Nc1c(Cl)cc(/C=C2\C=Cc3ccccc32)cc1Cl
Output line: inactive

Input line: Dear colleague, could you share the recorded outcome for Cn1c(C#N)ccc1-c1ccc(F)c(NC(=O)c2ccc(F)cc2)c1 when you have a moment?
Output line: inactive

Input line: Recorded test outcome, item CCOc1ccc(NC(=O)Nc2ccc(OCC)cc2)cc1
Output line: inactive

Input line: Test call for this compound, please: O=C(O)CCCCCCCCCCN1C(=O)/C(=C2/C(=O)N(CC(=O)O)c3ccc(Br)cc32)SC1=S
Output line: inactive

Input line: Give the logged outcome of this assay for the following compound: CCCC(O)Cn1ncc(C(=O)OCC)c1NC(=O)NCc1cccc(C(F)(F)F)c1 (configuration not stated)
Output line: inactive

Input line: Can you look up the reported call for COc1ccc(-c2cc(C(=O)N3N=C(c4ccc(N)cc4)CC3c3ccc(Cl)cc3)c3ccccc3n2)cc1 (configuration not stated) for me?
Output line: inactive

Input line: Which outcome was assigned to CN(C)CCCn1c2c(c3ccncc3c1=O)C(=O)c1ccccc1-2 in this test?
Output line: active

Input line: Recorded test call requested for COc1ccc(Oc2ccc(/C=C/C(=O)c3cc4ccccc4oc3=O)cc2)cc1
Output line: inactive

Input line: Which outcome did this test record for the compound Cc1[nH]c(C(=O)Nc2ccccc2OC2CCN(CCN3CCOCC3)CC2)c(Cl)c1Cl ?
Output line: inactive

Input line: Could you check what this test reported for S=c1ccnc[nH]1 ?
Output line: inactive

Input line: # lookup: test call for COc1cc(C[C@H]2COc3cc(O)cc(O)c3C2=O)ccc1O
Output line: inactive

Input line: Dear colleague, could you share the recorded outcome for CC1=C2[C@@H](CC1)[C@]1(C)O[C@@](C3CCNCC3)(C[C@H]1OC(=O)CO)[C@H]2OC(=O)/C=C/c1ccccc1 when you have a moment?
Output line: inactive

Input line: For COc1ccc(C/C(C)=C(\c2ccc(Cl)cc2)c2ccc(OCCN3CCCC3)cc2)cc1 , what call appears in the results of this test?
Output line: inactive

Input line: Fill in: this test's call for O=C(O)CC(C(=O)O)/C(=C\c1ccccc1)c1ccccc1 (configuration not stated) is ___
Output line: inactive

Input line: Give the logged outcome of this assay for the following compound: O=C(Nc1nc(Cl)nc(Nc2ccc(N3CCOCC3=O)cc2)n1)c1ccc(Cl)s1
Output line: inactive

Input line: So what was the verdict on CNC(=O)c1cc(Oc2ccc3c(c2)sc2nc(-c4ccc(Cl)c(C(F)(F)F)c4)cn23)ccn1 in this test?
Output line: inactive

Input line: For CN1C(=O)/C(=C/c2ccc(C(=O)Nc3ncc(Cc4cccc(C(F)(F)F)c4)s3)cc2)SC1=S , which call appears in the assay record?
Output line: inactive

Input line: Assay outcome for CCN1C(=O)N(CC)C2C1NN=c1s/c(=C\c3ccc(OC)cc3)c(=O)n12 (configuration not stated) : what was it?
Output line: inactive

Input line: Please share the test call associated with C=C1C(=O)O[C@H]2[C@H]1CC/C(CNC(=O)Cc1c[nH]c3ccccc13)=C\CC[C@@]1(C)O[C@@H]21 .
Output line: active

Input line: Returns: the outcome recorded for Cc1c2cnccc2c(C)c2c1c1cc(CO)ccc1n2C in this assay.
Output line: active

Input line: Tell me the recorded outcome of this test for Cc1ccc(-c2nc(SCC(=O)N3CCN(c4cc5c(cc4F)c(=O)c(C(=O)O)cn5C4CC4)CC3)nc(Cl)c2C#N)cc1 .
Output line: inactive

Input line: Recorded test outcome, item CCOC(=O)c1c(C)nc2c(c1N)C(=O)C(=O)N2Cc1ccc(OC)cc1
Output line: inactive

Input line: Outcome logged for Cc1ccc2nc(-c3ccc(C(=O)N/N=C/c4ccc([N+](=O)[O-])cc4)cc3)[nH]c2c1 in this assay:
Output line: inactive

Input line: What did the test return for CCN(CC)CCOc1ccc(C(=O)/C=C\c2ccc(Cl)cc2Cl)cc1 ?
Output line: inactive

Input line: Identify the outcome logged in this assay for the compound shown: CCCCCCCCCCOC(=O)c1nn(C(C)=O)c2cc(C)c(C)cc12
Output line: inactive

Input line: State the result this test recorded for CCN(CC)CCN1C(=O)c2c(c3c4ccccc4[nH]c3c3ccc4ccccc4c23)C1=O .
Output line: active

Input line: Hi, sorry to bother you, what did the test record for CC(=O)N1N=C(c2ccc(Nc3nc(Nc4ccc(F)cc4)nc(Nc4ccc(F)cc4)n3)cc2)CC1c1ccc(N(C)C)cc1 (configuration not stated) ?
Output line: inactive

Input line: Each compound tested received a call. Report the one for COc1ccc(/C=C(/C(=O)N2CCNCC2)c2cc(OC)c(OC)c(OC)c2)cc1O .
Output line: inactive

Input line: Identify the outcome logged in this assay for the compound shown: O=C(Nc1cc(Cl)ccc1O)c1ccccc1Nc1ccnc(C(F)(F)F)c1
Output line: inactive

Input line: I'd appreciate the recorded outcome for CN1c2ccccc2S(=O)(=O)n2c(SCC(=O)Nc3nc4ccc(F)cc4s3)nnc21 from this test.
Output line: inactive

Input line: Answer briefly: the call reported for CSc1nc2ccc(C)cc2cc1/C=C1/C=C(c2ccccc2)NC1=O in this assay.
Output line: active
